# target of assay: Brd3(BD1) (Homo sapiens)
# Sequence (Q15059 34-140 limits assumed): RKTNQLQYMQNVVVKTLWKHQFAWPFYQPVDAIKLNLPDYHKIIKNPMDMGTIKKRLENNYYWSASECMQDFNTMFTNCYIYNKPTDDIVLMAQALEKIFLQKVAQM
# assay procedure: HTRF BET selectivity profile, Brd3(BD1)
# Assay type: binding
# Parameters: GST tagged bromodomain proteins were purchased from BPS Bioscience; purchased BPS Bioscience
# condition context: selectivity Brd3(BD1) vs Brd3(BD2), HTRF IC50
# Procedure: HTRF assays were performed in white 384 Well Small Volume™ HiBase Polystyrene Microplates (Greiner) with a total working volume of 20 μL. […] Percentage of inhibition was calculated using the following equation: % inhibition=[(compound signal)−(min signal)]/[(max signal)−(min signal)]*100, where ‘max signal’ is the signal ratio with the compound vehicle alone (DMSO) and ‘min signal’ the signal ratio without peptide. […]
Values of Ratio 3-1 vs 3-2 strictly less than 10 map to label 1, and values of at least 10 map to label 0.

As a guide, the following entries are already answered.
                                   compound    group
0  CCn1cnc2c1c(=O)[nH]c(=O)n2Cc1ccc(CNS(=O)(=O)c2cc3ccccc3s2)cc1 [Compound 25b]  label 1
1  CCn1cnc2c1c(=O)[nH]c(=O)n2Cc1ccc(CNS(=O)(=O)c2ccc(-c3cc(C)n[nH]3)s2)cc1 [Compound 25a]  label 1
2  CCn1cnc2c1c(=O)[nH]c(=O)n2Cc1ccc(CNS(=O)(=O)c2ccc(OCc3ccccc3)cc2)cc1 [Compound 31a]  label 0
3  CCn1cnc2c1c(=O)[nH]c(=O)n2Cc1ccc(CNS(=O)(=O)c2ccn(-c3ccccc3)n2)cc1 [Compound 24b]  label 0
4  CCn1cnc2c1c(=O)[nH]c(=O)n2Cc1ccc(CNS(=O)(=O)c2ccc(C(=O)N3CCOCC3)cc2)cc1 [Compound 44b]  label 0

Exercise: Please let me know if CCn1cnc2c1c(=O)[nH]c(=O)n2Cc1ccc(CNS(=O)(=O)c2ccc3c(c2)CCCC(=O)N3)c2ccccc12 [Compound 31c] shows Ratio 3-1 vs 3-2 below 10.
Solution: label 1

Exercise: I wonder whether O=C1CCCc2cc(S(=O)(=O)C3CCC(C(=O)NCCc4ccccn4)CC3)ccc2N1 (stereo not drawn) [Compound 7a] has Ratio 3-1 vs 3-2 below 10. Can you tell?
Solution: label 1

Exercise: Is the reported Ratio 3-1 vs 3-2 for CCn1cnc2c1c(=O)[nH]c(=O)n2Cc1ccc(CNS(=O)(=O)c2ccc(OC3CCOCC3)cc2)cc1 [Compound 43b] strictly below 10?
Solution: label 0

Exercise: Quick check: Ratio 3-1 vs 3-2 of CCn1cnc2c1c(=O)[nH]c(=O)n2Cc1ccc(CNS(=O)(=O)c2ccc3scnc3c2)cc1 [Compound 25c] under 10?
Solution: label 1

====

# target of assay: BRD4(BD1) (Homo sapiens)
# assay procedure: Isothermal Titration Calorimetry
# Type: binding
# condition context: ITC; read-out: Binding affinity (Kd) to BRD4(1) by Isothermal Titration Calorimetry
recorded metric: pKd
By convention, pKd is the negative base-10 log of a molar concentration.

Worked examples, 5 molecules total:
In [3]: df
Out[3]:
                                   molecule  observed_result
0  O=C1CCCc2cc(S(=O)(=O)NCC3CCC(C(=O)NCCc4cccs4)CC3)ccc2N1 (single isomer, unassigned) [Compound 5c]             5.55
1  Cc1noc(C)c1CCNC(=O)C1CCC(CNS(=O)(=O)c2ccc3c(c2)CCCC(=O)N3)CC1 (stereo not drawn) [Compound 9a]             5.47
2  CCn1cnc2c1c(=O)[nH]c(=O)n2Cc1ccc(CNS(=O)(=O)c2ccc(C(=O)N3CCOCC3)cc2)cc1 [Compound 44b]             6.77
3  Cc1noc(C)c1CNC(=O)c1ccc(CNS(=O)(=O)c2ccc3c(c2)CCCC(=O)N3)cc1 [Compound 15c]             5.66
4  CCn1cnc2c1c(=O)[nH]c(=O)n2Cc1ccc(CNC(=O)c2ccc(Cn3cccc3)cc2)cc1 [Compound 33a]             4.69

Exercise: Supply pKd measured with BRD4(BD1) (Homo sapiens) for CCn1cnc2c1c(=O)[nH]c(=O)n2Cc1ccc(CNS(=O)(=O)c2ccc3c(c2)CCCC(=O)N3)cc1 [Compound 27c] .
Solution: 6.89

Exercise: Provide pKd, recorded with BRD4(BD1) (Homo sapiens), of CCn1cnc2c1c(=O)[nH]c(=O)n2Cc1ccc(CNS(=O)(=O)c2ccc(N3CCOCC3)cc2)cc1 [Compound 45a]
Solution: 7.22

Exercise: # return pKd for O=C1CCCc2cc(S(=O)(=O)NCC3CCC(C(=O)NCCc4ccccn4)CC3)ccc2N1 (stereo not drawn) [Compound 7b] , test system: BRD4(BD1) (Homo sapiens)
Solution: 5.06

Exercise: Recall the reported pKd of CCn1cnc2c1c(=O)[nH]c(=O)n2Cc1ccc(CNS(=O)(=O)c2ccc(Oc3ccccc3)cc2)cc1 [Compound 30c] on BRD4(BD1) (Homo sapiens) and write it down.
Solution: 6.19

====

# target of assay: Brd3(BD2) (Homo sapiens)
# Construct: GST tagged bromodomain proteins were purchased from BPS Bioscience
# Sequence (Q15059 306-415 limits assumed): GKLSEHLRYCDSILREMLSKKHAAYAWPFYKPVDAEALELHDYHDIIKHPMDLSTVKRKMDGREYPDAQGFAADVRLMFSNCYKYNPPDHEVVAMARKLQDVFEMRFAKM
# assay procedure: HTRF BET selectivity profile, Brd3(BD2)
recorded metric: IC50 (µM)
A number alone suffices; assume µM.

For orientation, consider the following solved cases.
>>> df
                                   compound           target_of_assay  recorded_metric  observed_result
0  CCn1cnc2c1c(=O)[nH]c(=O)n2Cc1ccc(CNS(=O)(=O)c2ccc(OC3CCOCC3)cc2)cc1 [Compound 43b]  Brd3(BD2) (Homo sapiens)             IC50              2.9
1  CCn1cnc2c1c(=O)[nH]c(=O)n2Cc1ccc(CNS(=O)(=O)c2ccc(-c3cc(C)n[nH]3)s2)cc1 [Compound 25a]  Brd3(BD2) (Homo sapiens)             IC50             3.17
2  CCn1cnc2c1c(=O)[nH]c(=O)n2Cc1ccc(CNS(=O)(=O)c2ccc(OC3CCCCC3)cc2)cc1 [Compound 43a]  Brd3(BD2) (Homo sapiens)             IC50             2.44
3  CCn1cnc2c1c(=O)[nH]c(=O)n2Cc1ccc(CNS(=O)(=O)c2ccc3c(c2)CCC(=O)N3)cc1 [Compound 27b]  Brd3(BD2) (Homo sapiens)             IC50             3.03
4  CCn1cnc2c1c(=O)[nH]c(=O)n2Cc1ccc(CNS(=O)(=O)c2ccc(N3CCOCC3)cc2)cc1 [Compound 45a]  Brd3(BD2) (Homo sapiens)             IC50             1.64
5  CCn1cnc2c1c(=O)[nH]c(=O)n2Cc1ccc(CNS(=O)(=O)c2ccc3c(c2)CCCC(=O)N3)cc1 [Compound 27c]  Brd3(BD2) (Homo sapiens)             IC50             3.47
6  CCn1cnc2c1c(=O)[nH]c(=O)n2Cc1ccc(CNS(=O)(=O)c2ccc(Oc3ccccc3)cc2)cc1 [Compound 30c]  Brd3(BD2) (Homo sapiens)             IC50             3.16
7  CCn1c(CSc2nc3nc(C)cc(C)n3n2)nc2c1c(=O)[nH]c(=O)n2Cc1ccc(CNS(=O)(=O)c2ccc3c(c2)CCCC(=O)N3)cc1 [Compound 32b]  Brd3(BD2) (Homo sapiens)             IC50             7.27

Exercise: Return reported IC50. Input compound: CCn1cnc2c1c(=O)[nH]c(=O)n2Cc1ccc(CNS(=O)(=O)c2ccc3scnc3c2)cc1 [Compound 25c]
Solution: 17.4

Exercise: Please report the measured IC50 for CCn1cnc2c1c(=O)[nH]c(=O)n2Cc1ccc(CNS(=O)(=O)c2ccc(OCc3ccccc3)cc2)cc1 [Compound 31a]
Solution: 13.5

Exercise: Tell me measured IC50 for CCn1cnc2c1c(=O)[nH]c(=O)n2Cc1ccc(CNS(=O)(=O)c2cccc(-c3ccccc3)c2)cc1 [Compound 29c] please.
Solution: 18.9

Exercise: Tell me IC50 reported for CCn1cnc2c1c(=O)[nH]c(=O)n2Cc1ccc(CNS(=O)(=O)c2ccc(-c3ccccc3)cc2)cc1 [Compound 29b]
Solution: 13.5

====

In this section we review reported log10(IC50) values for a set of compounds.
# target of assay: Brdt(BD1) (Homo sapiens, UniProt Q58F21)
# Construct: GST tagged bromodomain proteins were purchased from BPS Bioscience
# assay procedure: HTRF BET selectivity profile, Brdt(BD1)
On a log10 scale: recorded IC50, unit µM.

Take a look at these entries with their results.
>>> df
                                   compound                           target_of_assay  observed_result
0  CCn1cnc2c1c(=O)[nH]c(=O)n2Cc1ccc(CNS(=O)(=O)c2ccc(C(=O)N3CCOCC3)cc2)cc1 [Compound 44b]  Brdt(BD1) (Homo sapiens, UniProt Q58F21)            -0.40
1  CCn1cnc2c1c(=O)[nH]c(=O)n2Cc1ccc(CNS(=O)(=O)c2ccc3c(c2)CCCC(=O)N3)c2ccccc12 [Compound 31c]  Brdt(BD1) (Homo sapiens, UniProt Q58F21)             0.53
2  Cc1noc(C)c1CCNC(=O)c1ccc(CNS(=O)(=O)c2ccc3c(c2)CCCC(=O)N3)cc1 [Compound 16a]  Brdt(BD1) (Homo sapiens, UniProt Q58F21)             1.10
3  CCn1c(CSc2nc3nc(C)cc(C)n3n2)nc2c1c(=O)[nH]c(=O)n2Cc1ccc(CNS(=O)(=O)c2ccc3c(c2)CCCC(=O)N3)cc1 [Compound 32b]  Brdt(BD1) (Homo sapiens, UniProt Q58F21)             0.98
4  O=C1CCCc2cc(S(=O)(=O)C3CCC(C(=O)NCCc4ccccn4)CC3)ccc2N1 (stereo not shown) [Compound 7a]  Brdt(BD1) (Homo sapiens, UniProt Q58F21)             0.96
5  CCn1cnc2c1c(=O)[nH]c(=O)n2Cc1ccc(CNS(=O)(=O)c2ccc3c(c2)CCC(=O)N3)cc1 [Compound 27b]  Brdt(BD1) (Homo sapiens, UniProt Q58F21)             0.33

Now examine the next entry.
Exercise: Give a short answer stating reported log10(IC50) for CCn1cnc2c1c(=O)[nH]c(=O)n2Cc1ccc(CNS(=O)(=O)c2ccc(N3CCOCC3)cc2)cc1 [Compound 45a] .
Solution: -0.36
